molecular target: Voltage-gated inwardly rectifying potassium channel KCNH2 (Homo sapiens); assay: Human Ether-a-go-go-Related Gene (hERG) channel small molecule antagonists: fluorescence cell-based qHTS assay (AID 1671200); conditions: hERG-U2OS cells, FluxOR thallium flux fluorescence; series mostly up to 76.8 µM; also: nearly all actives have a fitted effect of over 50% in size
Records with an inconclusive call do not appear. Activity calls are given as the source filed them. Calls follow the shape of the dose curve; as a rule, active = well fitted inhibition curve with a large enough effect in the repeat runs; inconclusive = weak or mixed curves; inactive = flat fitted curve, though single readings scatter.
// one of active, inactive, no free text

What is the recorded call for this compound in the test? CCCCC1C(=O)NC(=O)N(C2CCCCC2)C1=O (centres undefined)
inactive

Try this compound next: O=C(O)COc1cc(Cl)c(Cl)cc1Cl
inactive

Try this compound next: CCCCCBr
inactive

Try this compound next: CN(C)c1ccc(N=O)cc1
inactive

Try this compound next: C[C@H]1O[C@H](OC2[C@@H](O)[C@@H](O)C(O)[C@H](O)[C@H]2O)[C@@H](N)C[C@@H]1N=C(N)C(=O)O (some centres undefined)
inactive

Try this compound next: Cc1cccc(C)c1NC1=NCCCS1
inactive

Try this compound next: O=C(O)CCCOc1ccc(Cl)cc1Cl
inactive

Try this compound next: NNCCO
inactive

Try this compound next: C=CCc1ccccc1O
inactive

Try this compound next: COc1ccccc1N1CCNCC1
inactive

Try this compound next: CC(Cl)C(=O)O (centres undefined)
inactive

Try this compound next: O=C(Cc1ccccc1)OCCc1ccccc1
inactive

Try this compound next: ClCc1ccccc1Cl
inactive

Try this compound next: CCCC[P+](CC)(CCCC)CCCC (tested in a mixture with another compound)
active

---

assay: qHTS assay to identify small molecule agonists of the RXR signaling pathway - cell viability counter screen (AID 1159529); conditions: RXR-alpha-bla HEK293T viability, CellTiter-Glo, 16 h; series mostly up to 76.8 µM;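 also: HEK 293T cells carrying an RXR-alpha UAS beta-lactamase reporter; % is scaled to controls: 0 for no effect and ±100 for the full control effect; nearly all actives have a fitted effect of over 50% in size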
Inconclusive results are not listed. Calls of active or inactive are those of the source. The call rests on the fitted dose curve; in most records, active means well fitted cell-killing curve with a large enough effect in the repeat runs; inconclusive means weak or mixed curves, or effect the other way; inactive means no such curve, though single readings can be large or run the other way.
PARAMETER: activity change, negative = cytotoxicity

The following compounds have reported results that may help.
{"COMPOUND": "CCOP(=O)(O)C(N)=O", "activity change, negative = cytotoxicity": "inactive"}
{"COMPOUND": "CN(C1CCCCC1)C1CCCCC1", "activity change, negative = cytotoxicity": "inactive"}
{"COMPOUND": "CC(C)(C)N(NC(=O)c1ccc(Cl)cc1)C(=O)c1ccccc1", "activity change, negative = cytotoxicity": "inactive"}
{"COMPOUND": "COc1ccccc1N1CCNCC1", "activity change, negative = cytotoxicity": "inactive"}
{"COMPOUND": "OCC1CO1 (stereo not drawn)", "activity change, negative = cytotoxicity": "inactive"}
{"COMPOUND": "CCCC[N+](CCCC)(CCCC)CCCC", "activity change, negative = cytotoxicity": "inactive"}

For the next question, use this compound.
If you can, please state the reported activity change, negative = cytotoxicity value of O=C(N/N=C/c1ccc([N+](=O)[O-])o1)c1cc([N+](=O)[O-])cc([N+](=O)[O-])c1O .
inactive

---

test: qHTS assay for identifying genotoxic compounds that show differential cytotoxicity against isogenic chicken DT40 cell lines with known DNA damage response pathways - Rad54/Ku70 mutant cell line (AID 743015); settings: DT40 Rad54/Ku70 mutant viability, CellTiter-Glo, 40 h; series mostly up to 66.8 µM; also: nearly all actives have a fitted effect of over 60% in size; also: potency is read from the fitted curve at half-maximal effect
Inconclusive results are not listed. The source made the active and inactive calls. Calls follow the shape of the dose curve; as a rule, active = well fitted cell-killing curve with a large enough effect in the repeat runs; inconclusive = weak or mixed curves; inactive = no such curve, though single readings can be large or run the other way.
PARAMETER: Potency

The following molecules have reported results that may help.
{"MOLECULE": "CC(C)CCON=O", "Potency": "inactive"}
{"MOLECULE": "CCC1(CCC(C)C)C(=O)NC(=O)NC1=O", "Potency": "inactive"}
{"MOLECULE": "COc1ccc(C(=O)c2c(C)n(CCN3CCOCC3)c3ccccc23)cc1", "Potency": "29.8 µM (active)"}
{"MOLECULE": "CCCCCCCCCCCCN(C)C", "Potency": "inactive"}

For the next question, use this molecule.
If you can, please state the reported Potency value of CC(C)(C)OOC(C)(C)CCC(C)(C)OOC(C)(C)C .
inactive

---

target: Peroxisome proliferator-activated receptor delta (Homo sapiens); assay: qHTS assay to identify small molecule antagonists of the peroxisome proliferator-activated receptor delta (PPARd) signaling pathway (AID 743215); settings: HEK293H PPARd-UAS-bla, beta-lactamase FRET ratio, antagonist, 17 h; series mostly up to 62 µM;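 also: cells stimulated with agonist L165041 at 300 nM final during compound exposure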
Inconclusive results are not listed. The source made the active and inactive calls. The call rests on the fitted dose curve; in most records, active means well fitted inhibition curve with a large enough effect in the signal ratio in the repeat runs (not every such curve was filed as active); inconclusive means weak or mixed curves, or effect the other way; inactive means no such curve, though single readings can be large or run the other way; the % refers to the signal ratio.
// one of active, inactive, no free text

What is the recorded call for this compound in the test? CCOP(=S)(OCC)SCSc1cc(Cl)ccc1Cl
inactive

Try this compound next: C=CCOC(=O)C(C)(C)OC(=O)c1cc(-n2c(=O)cc(C(F)(F)F)n(C)c2=O)ccc1Cl
inactive

Try this compound next: CC(C)c1ccc(NC(=O)N(C)C)cc1
inactive

Try this compound next: C[C@H](N)[C@H](O)c1ccc(O)c(O)c1
inactive

Try this compound next: C1CCNCC1
inactive

Try this compound next: C=CCc1ccccc1O
inactive

Try this compound next: CNC(=O)Oc1cccc(N=CN(C)C)c1
inactive

Try this compound next: O=C(NC(=O)c1cc(F)c(F)cc1Cl)Nc1cc(F)ccc1N1CCC(C(=O)O)CC1
inactive

Try this compound next: NC(=S)c1c(Cl)cccc1Cl
inactive

Try this compound next: CN[C@@H](C)[C@H](O)c1ccccc1
inactive

Try this compound next: CCCCCCCCCCCCCCCl
inactive

Try this compound next: Nc1ccc2c(c1)Cc1ccccc1-2
inactive

Try this compound next: C=C(Cl)Cl
inactive

Try this compound next: CC(=O)OC(c1ccccc1)C(Cl)(Cl)Cl (configuration not stated)
inactive

Try this compound next: CC[N+]1(C)CCCC(OC(=O)C(O)(c2ccccc2)c2ccccc2)C1 (configuration not stated)
inactive

Try this compound next: O=C(O)C(F)(F)C(F)(F)C(F)(F)C(F)(F)C(F)(F)F
inactive

Try this compound next: CCOC(=O)c1cncn1C(C)c1ccccc1 (configuration not stated)
inactive

Try this compound next: CC(O)CN1CCN(CC(=O)[O-])CCN(CC(=O)[O-])CCN(CC(=O)[O-])CC1.[Gd+3] (configuration not stated)
inactive

Try this compound next: Nc1c(Br)cc(Br)c2c1C(=O)c1ccccc1C2=O
inactive

Try this compound next: O=C(Cc1ccccc1)OCCc1ccccc1
inactive

Try this compound next: CCCCCCCCCCCCN(C)C
inactive

Try this compound next: O=C(O)C(Cl)(Cl)Br
inactive

Try this compound next: CC(C)CCON=O
inactive

Try this compound next: CN1C(=O)CN=C(c2ccccc2)c2cc([N+](=O)[O-])ccc21
inactive

Try this compound next: CN(C)c1ccc(N=O)cc1
active

Try this compound next: COc1ccc2c(c1OC)C(=O)O[C@H]2[C@@H]1c2cc3c(cc2CCN1C)OCO3
inactive

Try this compound next: NCCc1cc(O)c(O)cc1O
inactive

---

Assay: qHTS assay to test for compound auto fluorescence at 590 nm (red) in HEK293 cell free culture (AID 720683); also: % is scaled to controls: 0 for no effect and ±100 for the full control effect
Conditions: cell-free medium autofluorescence, Ex540/Em590 red; series mostly up to 91.3 µM
Text: U.S. Tox21 Program National Center for Advancing Translational Sciences [NCATS] NIH Chemical Genomics Center [NCGC] U.S. Environmental Protection Agency [EPA] National Institutes of Environmental Health Sciences [NIEHS] National Toxicology Program [NTP] U.S. Food and Drug Administration [FDA] Tox21 Assay Overview: Compound auto fluorescence often interferes with screening of the compound library against various biological targets and signaling pathways. […] This assay includes the red fluorescence data. […]
The source made the active and inactive calls. The call rests on the fitted dose curve; in most records, active means well fitted curve in the direction sought with a large enough effect in the repeat runs; inconclusive means weak or mixed curves; inactive means flat fitted curve, though single readings scatter.
PARAMETER: fluorescence, % of fluorescent control

{"SMILES_REPRESENTATION": "O=C1CC[C@@]2(O)[C@H]3Cc4ccc(O)c5c4[C@@]2(CCN3CC2CC2)[C@H]1O5", "VALUE": "inactive"}
{"SMILES_REPRESENTATION": "C=C(C)C(=O)OCCCCOC(=O)C(=C)C", "VALUE": "inactive"}
{"SMILES_REPRESENTATION": "CCCCCBr", "VALUE": "inactive"}

---

biological target: Vitamin D3 receptor (Homo sapiens) (UniProt P11473); experiment: qHTS assay to identify small molecule antagonists of the vitamin D receptor (VDR) signaling pathway (AID 743223); conditions: VDR-UAS-bla HEK293T, beta-lactamase FRET ratio, 16 h; series mostly up to 61 µM
Sequence (P11473 whole entry, looked up): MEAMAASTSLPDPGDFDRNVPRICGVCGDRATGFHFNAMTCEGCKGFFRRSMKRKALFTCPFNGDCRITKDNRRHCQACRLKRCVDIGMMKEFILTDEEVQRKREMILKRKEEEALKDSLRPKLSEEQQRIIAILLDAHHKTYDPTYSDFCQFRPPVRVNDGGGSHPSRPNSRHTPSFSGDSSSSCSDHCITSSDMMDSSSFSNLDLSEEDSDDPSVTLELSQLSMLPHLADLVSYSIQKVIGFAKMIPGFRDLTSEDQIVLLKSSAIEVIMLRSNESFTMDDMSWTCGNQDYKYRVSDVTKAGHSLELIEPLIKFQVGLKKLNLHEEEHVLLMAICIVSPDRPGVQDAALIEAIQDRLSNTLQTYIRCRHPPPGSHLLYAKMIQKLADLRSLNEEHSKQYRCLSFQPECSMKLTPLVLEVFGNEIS
Inconclusive results are not listed. Activity calls are given as the source filed them. The call rests on the fitted dose curve; in most records, active means well fitted inhibition curve with a large enough effect in the signal ratio in the repeat runs (not every such curve was filed as active); inconclusive means weak or mixed curves, or effect the other way; inactive means no such curve, though single readings can be large or run the other way; the % refers to the signal ratio.
// one of 1 (yes) = active, 0 (no) = inactive, no free text

What is the recorded call for this compound in the test? C=CCOCC1CO1 (centres undefined)
0 (no)

Try this compound next: O=C(N/N=C/c1ccc([N+](=O)[O-])o1)c1cc([N+](=O)[O-])cc([N+](=O)[O-])c1O
0 (no)

Try this compound next: Oc1cccc(Cl)c1
0 (no)

Try this compound next: CCOP(=S)(S)OCC
0 (no)

Try this compound next: CC(C)c1ccc(OP(=O)(Oc2ccc(C(C)C)cc2)Oc2ccc(C(C)C)cc2)cc1
0 (no)

Try this compound next: c1ccc2sc(SNC3CCCCC3)nc2c1
0 (no)

Try this compound next: CCCSP(=S)(OCC)Oc1ccc(SC)cc1 (centres undefined)
0 (no)

Try this compound next: C=CCSSCC=C
0 (no)

Try this compound next: Cc1nc(N(C)C)nc(OC(=O)N(C)C)c1C
0 (no)

Try this compound next: COc1ccccc1N1CCNCC1
0 (no)

Try this compound next: Clc1ccc(Cl)c(Cl)c1
0 (no)

Try this compound next: O=[N+]([O-])c1cc(Cl)c(Cl)cc1Cl
0 (no)

Try this compound next: CC(Cc1ccccc1)NCc1ccccc1Cl (centres undefined)
0 (no)

Try this compound next: Nc1c(Br)cc(Br)c2c1C(=O)c1ccccc1C2=O
0 (no)

Try this compound next: O=[N+]([O-])O[C@H]1CO[C@H]2[C@@H]1OC[C@H]2O[N+](=O)[O-]
0 (no)

Try this compound next: CC(=O)NNc1ccccc1
0 (no)

Try this compound next: N#CC(C#N)=Cc1ccc(O)c(O)c1
0 (no)

Try this compound next: N#CC1(N=NC2(C#N)CCCCC2)CCCCC1
0 (no)

Try this compound next: CN1CC[C@]23c4c5ccc(O)c4O[C@H]2[C@@H](O)CC[C@H]3[C@H]1C5
0 (no)

Try this compound next: OCC1CO1 (centres undefined)
0 (no)

Try this compound next: CCCCCCCCCCCCN(C)C
0 (no)

Try this compound next: CCCCC(CC)COC(=O)c1c(Br)c(Br)c(Br)c(Br)c1C(=O)OCC(CC)CCCC (centres undefined)
0 (no)

Try this compound next: CCCC(C)(COC(N)=O)COC(=O)NC(C)C (centres undefined)
0 (no)

Try this compound next: CC(CC(C(N)=O)(c1ccccc1)c1ccccc1)N(C)C (centres undefined)
0 (no)

Try this compound next: CCCCCBr
0 (no)

Try this compound next: C[CH2][Hg][S]c1ccccc1C(=O)O
1 (yes)

Try this compound next: CCOP(=O)(O)C(N)=O
0 (no)

Try this compound next: O=C(CCl)CCl
0 (no)

Try this compound next: Cc1ccccc1
0 (no)
